The origin of these recorded values is PubChem BioAssay.

- test_description: galactose survival enhancers in mitochondrial complex I cybrids – cell-based, galactose medium, ATP luminescence, primary screen (AID 1645843);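 further: positive z means more ATP and so rescue of galactose-driven cybrid death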
- measurement_context: complex I mutant cybrid cells, 72 h, active compounds read high
Active and inactive are the calls of the source.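 How the source made its calls: active means z-score of at least 1.8 in each of two replicates, scored against plate mean and spread of sample wells; inactive means the rest.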
Documented z-score across a set of compounds

compound	z-score
CCC1(c2ccccc2)NC(=O)N(C)C1=O (stereo unspecified)	0.64 (inactive)
O=c1onc2n1-c1cc(Br)ccc1OC2	0.095 (inactive)
Cc1cc(C(=O)O)sc1C(N)C(=O)O (stereo unspecified)	0.285 (inactive)

Now look at this one.
Q: For the compound `c1ccc2cc(C3=NCCN3)ncc2c1` , report z-score.
A: -0.34 (inactive)
